All figures here come from paper PMC6504873.

Molecular target: WT PfPKG (Plasmodium falciparum)
Construct: recombinant full length wild type (WT) PfPKG; His6 (N); host or cells: E. coli BL21
Sequence (Q8I719 whole entry): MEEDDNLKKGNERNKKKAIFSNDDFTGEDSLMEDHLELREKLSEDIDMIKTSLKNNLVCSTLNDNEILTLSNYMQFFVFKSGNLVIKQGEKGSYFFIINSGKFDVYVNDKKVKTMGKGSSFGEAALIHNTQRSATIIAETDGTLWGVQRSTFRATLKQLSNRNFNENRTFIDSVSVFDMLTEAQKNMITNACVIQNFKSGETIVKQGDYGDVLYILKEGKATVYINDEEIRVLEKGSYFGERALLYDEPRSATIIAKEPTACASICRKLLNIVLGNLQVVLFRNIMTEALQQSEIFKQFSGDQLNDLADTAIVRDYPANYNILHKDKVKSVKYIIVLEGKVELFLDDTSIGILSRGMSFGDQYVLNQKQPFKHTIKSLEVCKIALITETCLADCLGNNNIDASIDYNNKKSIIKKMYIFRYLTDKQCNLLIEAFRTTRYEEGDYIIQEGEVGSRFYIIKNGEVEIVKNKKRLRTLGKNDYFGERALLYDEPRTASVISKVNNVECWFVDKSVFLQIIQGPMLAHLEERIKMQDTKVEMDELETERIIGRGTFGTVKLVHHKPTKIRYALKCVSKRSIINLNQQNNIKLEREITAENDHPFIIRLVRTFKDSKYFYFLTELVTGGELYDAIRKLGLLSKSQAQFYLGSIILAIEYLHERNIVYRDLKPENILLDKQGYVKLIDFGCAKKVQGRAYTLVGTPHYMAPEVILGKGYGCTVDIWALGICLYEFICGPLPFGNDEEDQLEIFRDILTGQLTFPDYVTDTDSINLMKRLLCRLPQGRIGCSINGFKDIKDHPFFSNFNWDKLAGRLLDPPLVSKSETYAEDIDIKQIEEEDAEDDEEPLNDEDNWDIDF
Parameters: species or system P. falciparum
Settings: ligand efficiency
PROPERTY: LE
Numbers only.

Please review the following examples before continuing.
Incoming: Given the compound CNS(=O)(=O)c1cccc(Nc2ccnc(Nc3cccc(S(=O)(=O)NC)c3)n2)c1 [Compound 6] , what is its reported LE?
Outgoing: 0.33

Incoming: Given the compound COc1cc(CS(C)(=O)=O)ccc1Nc1nc(Nc2cc(F)ccc2C(N)=O)c2cc[nH]c2n1 [Compound 10] , what is its reported LE?
Outgoing: 0.3

Incoming: Given the compound COc1cccc(Nc2nc(-c3ccncc3)cc(N3CCN(C)CC3)n2)c1 [Compound 9] , what is its reported LE?
Outgoing: 0.37

Please report LE for every entry that follows.
1. O=C(N[C@@H](CO)c1ccccc1)c1ccc2cncc(-c3cn[nH]c3)c2n1 [Compound 11]
2. NCCNCc1ccc(-c2cc3ccncc3cc2OC2CCNCC2)s1 [Compound 12]

Outgoing:
[0.36, 0.33]

###

Biological target: TQ PfPKG (PfPKG_T618Q) (Plasmodium falciparum, UniProt Q8I719, T618Q)
Construct: His6 (N); host or cells: E. coli BL21
Sequence (Q8I719 whole entry T618Q): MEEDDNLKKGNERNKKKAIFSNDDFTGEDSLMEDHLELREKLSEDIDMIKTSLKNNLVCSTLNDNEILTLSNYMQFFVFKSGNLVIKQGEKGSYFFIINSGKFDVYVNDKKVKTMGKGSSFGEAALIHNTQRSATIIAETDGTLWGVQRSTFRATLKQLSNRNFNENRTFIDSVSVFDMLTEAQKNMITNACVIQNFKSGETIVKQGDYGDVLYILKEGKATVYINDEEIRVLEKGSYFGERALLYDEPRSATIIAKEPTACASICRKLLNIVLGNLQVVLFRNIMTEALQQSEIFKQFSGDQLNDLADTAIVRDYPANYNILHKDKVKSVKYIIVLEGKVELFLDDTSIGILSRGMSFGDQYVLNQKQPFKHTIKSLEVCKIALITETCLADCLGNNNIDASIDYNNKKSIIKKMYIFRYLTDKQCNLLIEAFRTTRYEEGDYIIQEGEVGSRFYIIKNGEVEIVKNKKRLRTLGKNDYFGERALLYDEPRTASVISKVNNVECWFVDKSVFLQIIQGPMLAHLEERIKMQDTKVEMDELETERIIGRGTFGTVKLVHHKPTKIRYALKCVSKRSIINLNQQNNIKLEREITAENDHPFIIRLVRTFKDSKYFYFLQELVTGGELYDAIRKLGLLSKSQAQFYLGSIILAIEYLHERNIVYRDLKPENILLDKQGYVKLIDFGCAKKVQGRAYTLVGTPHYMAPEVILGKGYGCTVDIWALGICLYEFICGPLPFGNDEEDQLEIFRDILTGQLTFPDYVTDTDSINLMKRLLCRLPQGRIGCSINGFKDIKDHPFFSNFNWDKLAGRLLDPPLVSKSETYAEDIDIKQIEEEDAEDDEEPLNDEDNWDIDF
Test: Kinase Glo enzymatic assay, gatekeeper mutant TQ PfPKG
Format: biochemical, P. falciparum
PROPERTY: IC50 (nM)
One number for each entry, in nM.

Incoming: Given the compound O=C(c1cccc(OCc2cccnc2)c1)N1CCc2sccc2C1CN1CCCCC1 (stereo not shown) , what is its reported IC50?
Outgoing: 473

Please report IC50 for every entry that follows.
1. NCCNCc1ccc(-c2cc3ccncc3cc2OC2CCNCC2)s1
2. COc1ccc(CCNC(=O)CSc2ncnc3[nH]ncc23)cc1OC

Outgoing:
1: 851; 2: 22100

###

Experiment: ChromlogD (lipophilicity)
PROPERTY: chromatographic logD

Incoming: Given the compound `CC(C)(CN)c1cc(-c2ccc(Cl)c(O)c2)c(-c2ccncc2)o1` , what is its reported chromatographic logD?
Outgoing: 3.1

Incoming: Given the compound `CCn1cc(-c2ccncn2)c(-c2cccc(NS(=O)(=O)c3cc(F)ccc3F)c2)n1` , what is its reported chromatographic logD?
Outgoing: 4

Incoming: Given the compound `CCn1c(-c2nonc2N)nc2c(-c3ccccc3)ncc(CN(C)C3CCN(C)CC3)c21` , what is its reported chromatographic logD?
Outgoing: 3.7

Incoming: Given the compound `COc1ccc(CCNC(=O)CSc2ncnc3[nH]ncc23)cc1OC` , what is its reported chromatographic logD?
Outgoing: 2.3

Incoming: Given the compound `Nc1nc(Nc2cccc3cnccc23)nn1C(=O)C1CCCCC1` , what is its reported chromatographic logD?
Outgoing: 4.6

Please report chromatographic logD for every entry that follows.
1. COc1cc(CS(C)(=O)=O)ccc1Nc1nc(Nc2cc(F)ccc2C(N)=O)c2cc[nH]c2n1
2. Cc1ccc(S(C)(=O)=O)cc1Nc1nccc(-c2sc(CC(N)=O)nc2-c2ccccc2)n1
3. CNCCOc1cnc(-c2ccoc2C)c(-c2ccc3cnccc3c2)c1

Outgoing:
1. 3.3
2. 3.3
3. 2.1

Please report chromatographic logD for every entry that follows.
1. O=C(c1cccc(OCc2cccnc2)c1)N1CCc2sccc2C1CN1CCCCC1 (stereo not shown)
2. COc1cccc(Nc2nc(-c3ccncc3)cc(N3CCN(C)CC3)n2)c1
3. Nc1nccc(-c2c(-c3ccc(F)cc3)ncn2C2CCNCC2)n1
4. O=C(N[C@@H](CO)c1ccccc1)c1ccc2cncc(-c3cn[nH]c3)c2n1
5. CNS(=O)(=O)c1cccc(Nc2ccnc(Nc3cccc(S(=O)(=O)NC)c3)n2)c1
6. NCCNCc1ccc(-c2cc3ccncc3cc2OC2CCNCC2)s1

Outgoing:
1. 3.9
2. 3.6
3. 0.8
4. 1.9
5. 3.4
6. -0.36

Please report chromatographic logD for every entry that follows.
1. Nc1ccc2c(-c3ccncc3)c(-c3ccc(Cl)c(O)c3)[nH]c2n1
2. COc1ccc(-c2c(-c3cccc(C(=O)N4CCN(C)CC4)c3)oc3ncnc(N)c23)cc1

Outgoing:
1. 2.1
2. 2.6

###

Assay: PFI
Type: physicochemical
Please use Met whenever PFI is not below 7, and Not met whenever it is.

These recorded examples may help you get a feel for the data.
Incoming: Entry `CNCCOc1cnc(-c2ccoc2C)c(-c2ccc3cnccc3c2)c1` : is its PFI no less than 7?
Outgoing: Not met

Incoming: Entry `O=C(N[C@@H](CO)c1ccccc1)c1ccc2cncc(-c3cn[nH]c3)c2n1` : is its PFI no less than 7?
Outgoing: Not met

Incoming: Entry `CNS(=O)(=O)c1cccc(Nc2ccnc(Nc3cccc(S(=O)(=O)NC)c3)n2)c1` : is its PFI no less than 7?
Outgoing: Not met

Incoming: Entry `COc1cc(CS(C)(=O)=O)ccc1Nc1nc(Nc2cc(F)ccc2C(N)=O)c2cc[nH]c2n1` : is its PFI no less than 7?
Outgoing: Met

Incoming: Entry `Nc1nc(Nc2cccc3cnccc23)nn1C(=O)C1CCCCC1` : is its PFI no less than 7?
Outgoing: Met

---
Incoming: Entry `Nc1ccc2c(-c3ccncc3)c(-c3ccc(Cl)c(O)c3)[nH]c2n1` : is its PFI no less than 7?
Outgoing: Not met

Incoming: Entry `COc1ccc(-c2c(-c3cccc(C(=O)N4CCN(C)CC4)c3)oc3ncnc(N)c23)cc1` : is its PFI no less than 7?
Outgoing: Not met

Incoming: Entry `CC(C)(CN)c1cc(-c2ccc(Cl)c(O)c2)c(-c2ccncc2)o1` : is its PFI no less than 7?
Outgoing: Not met

Incoming: Entry `CCn1cc(-c2ccncn2)c(-c2cccc(NS(=O)(=O)c3cc(F)ccc3F)c2)n1` : is its PFI no less than 7?
Outgoing: Met

Incoming: Entry `COc1ccc(CCNC(=O)CSc2ncnc3[nH]ncc23)cc1OC` : is its PFI no less than 7?
Outgoing: Not met

###

Biological target: TQ PfPKG (PfPKG_T618Q) (Plasmodium falciparum, UniProt Q8I719, T618Q)
Construct: His6 (N)
Test: Kinase Glo enzymatic assay, gatekeeper mutant TQ PfPKG
PROPERTY: IC50 (µM)
Numbers only, in µM.

Incoming: Given the molecule CC(C)(CN)c1cc(-c2ccc(Cl)c(O)c2)c(-c2ccncc2)o1 [Compound 4] , what is its reported IC50?
Outgoing: 36.7

Incoming: Given the molecule Nc1ccc2c(-c3ccncc3)c(-c3ccc(Cl)c(O)c3)[nH]c2n1 [Compound 15] , what is its reported IC50?
Outgoing: 24

Turning now to a further record.
Incoming: Given the molecule Cc1ccc(S(C)(=O)=O)cc1Nc1nccc(-c2sc(CC(N)=O)nc2-c2ccccc2)n1 [Compound 3] , what is its reported IC50?
Outgoing: 19.1

###

Quick note: these are pIC50 numbers for system: PI3KD (Homo sapiens)
Sequence (O00329 whole entry): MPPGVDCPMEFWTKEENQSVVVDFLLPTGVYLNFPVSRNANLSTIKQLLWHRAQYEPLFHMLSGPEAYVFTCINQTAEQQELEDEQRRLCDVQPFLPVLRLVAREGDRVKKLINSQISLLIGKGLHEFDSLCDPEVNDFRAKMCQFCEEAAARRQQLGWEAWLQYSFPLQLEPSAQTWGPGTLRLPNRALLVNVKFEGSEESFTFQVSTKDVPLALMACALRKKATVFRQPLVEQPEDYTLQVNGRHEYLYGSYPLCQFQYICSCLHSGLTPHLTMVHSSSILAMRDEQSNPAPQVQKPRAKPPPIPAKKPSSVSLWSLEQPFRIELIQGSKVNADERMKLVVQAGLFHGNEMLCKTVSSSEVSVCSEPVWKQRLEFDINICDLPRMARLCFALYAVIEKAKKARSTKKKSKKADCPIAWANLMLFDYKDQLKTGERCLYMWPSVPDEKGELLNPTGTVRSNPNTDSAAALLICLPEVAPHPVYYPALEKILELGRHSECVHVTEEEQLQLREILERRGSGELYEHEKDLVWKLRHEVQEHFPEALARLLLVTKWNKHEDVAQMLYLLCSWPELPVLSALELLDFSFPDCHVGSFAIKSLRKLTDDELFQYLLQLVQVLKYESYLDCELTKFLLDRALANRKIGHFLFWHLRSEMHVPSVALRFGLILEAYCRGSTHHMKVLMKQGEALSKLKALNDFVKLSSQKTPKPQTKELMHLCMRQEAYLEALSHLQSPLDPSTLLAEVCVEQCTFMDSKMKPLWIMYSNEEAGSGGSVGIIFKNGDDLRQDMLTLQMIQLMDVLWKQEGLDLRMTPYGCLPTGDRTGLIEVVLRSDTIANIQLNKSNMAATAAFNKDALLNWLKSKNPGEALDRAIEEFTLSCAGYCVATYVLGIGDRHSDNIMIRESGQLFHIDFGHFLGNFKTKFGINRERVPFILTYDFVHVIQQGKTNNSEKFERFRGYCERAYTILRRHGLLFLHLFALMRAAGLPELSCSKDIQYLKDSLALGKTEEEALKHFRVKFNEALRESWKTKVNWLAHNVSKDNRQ
Sequence (P27986 whole entry partner): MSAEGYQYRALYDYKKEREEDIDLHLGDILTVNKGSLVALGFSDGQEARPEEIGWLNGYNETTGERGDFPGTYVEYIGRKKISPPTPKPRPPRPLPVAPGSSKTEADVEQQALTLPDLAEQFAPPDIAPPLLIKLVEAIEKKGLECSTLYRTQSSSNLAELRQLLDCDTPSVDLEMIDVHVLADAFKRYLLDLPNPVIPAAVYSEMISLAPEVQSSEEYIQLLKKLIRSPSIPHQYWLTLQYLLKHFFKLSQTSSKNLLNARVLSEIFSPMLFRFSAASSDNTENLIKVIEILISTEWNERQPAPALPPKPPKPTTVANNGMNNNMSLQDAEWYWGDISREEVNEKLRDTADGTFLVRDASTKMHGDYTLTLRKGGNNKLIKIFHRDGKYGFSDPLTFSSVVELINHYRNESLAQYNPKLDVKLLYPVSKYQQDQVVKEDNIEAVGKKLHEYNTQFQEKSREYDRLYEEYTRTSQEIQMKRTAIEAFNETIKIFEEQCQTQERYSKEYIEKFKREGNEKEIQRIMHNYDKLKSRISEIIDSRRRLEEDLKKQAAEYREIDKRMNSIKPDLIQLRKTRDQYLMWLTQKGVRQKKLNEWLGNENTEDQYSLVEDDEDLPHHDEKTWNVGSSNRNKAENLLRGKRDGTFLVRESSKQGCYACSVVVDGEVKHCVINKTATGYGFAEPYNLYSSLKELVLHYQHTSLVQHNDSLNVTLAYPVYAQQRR
pIC50: −log10 of the molar value.

Please review the following examples before continuing.
Incoming: Given the molecule `Nc1nc(Nc2cccc3cnccc23)nn1C(=O)C1CCCCC1` , what is its reported pIC50?
Outgoing: < 4.30

Incoming: Given the molecule `CC(C)(CN)c1cc(-c2ccc(Cl)c(O)c2)c(-c2ccncc2)o1` , what is its reported pIC50?
Outgoing: < 4.30

Incoming: Given the molecule `Nc1ccc2c(-c3ccncc3)c(-c3ccc(Cl)c(O)c3)[nH]c2n1` , what is its reported pIC50?
Outgoing: 5.00

Please report pIC50 for every entry that follows.
1. CNS(=O)(=O)c1cccc(Nc2ccnc(Nc3cccc(S(=O)(=O)NC)c3)n2)c1
2. COc1cccc(Nc2nc(-c3ccncc3)cc(N3CCN(C)CC3)n2)c1
3. O=C(c1cccc(OCc2cccnc2)c1)N1CCc2sccc2C1CN1CCCCC1 (stereo not shown)
4. CCn1c(-c2nonc2N)nc2c(-c3ccccc3)ncc(CN(C)C3CCN(C)CC3)c21

Outgoing:
1: 5.60; 2: < 4.30; 3: < 4.30; 4: < 4.30

###

Target: LCK (Homo sapiens, UniProt P06239)
Sequence (P06239 whole entry): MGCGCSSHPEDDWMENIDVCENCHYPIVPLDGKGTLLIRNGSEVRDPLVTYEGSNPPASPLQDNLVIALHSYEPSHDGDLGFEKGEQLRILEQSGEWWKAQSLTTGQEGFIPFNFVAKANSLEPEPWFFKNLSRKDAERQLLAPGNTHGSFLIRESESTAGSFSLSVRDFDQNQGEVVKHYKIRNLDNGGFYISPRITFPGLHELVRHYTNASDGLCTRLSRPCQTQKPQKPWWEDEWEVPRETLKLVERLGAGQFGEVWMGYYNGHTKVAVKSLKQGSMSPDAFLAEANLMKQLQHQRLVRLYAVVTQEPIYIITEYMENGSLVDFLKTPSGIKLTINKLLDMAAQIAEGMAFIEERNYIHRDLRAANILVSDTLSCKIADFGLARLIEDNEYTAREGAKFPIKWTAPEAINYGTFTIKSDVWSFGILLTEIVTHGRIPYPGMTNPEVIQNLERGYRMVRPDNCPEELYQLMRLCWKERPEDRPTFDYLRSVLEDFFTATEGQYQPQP
PROPERTY: pIC50
Give bare numbers, as −log10 of the molar value.

Please review the following examples before continuing.
Incoming: Given the compound `O=C(N[C@@H](CO)c1ccccc1)c1ccc2cncc(-c3cn[nH]c3)c2n1` , what is its reported pIC50?
Outgoing: 6.00

Incoming: Given the compound `CNS(=O)(=O)c1cccc(Nc2ccnc(Nc3cccc(S(=O)(=O)NC)c3)n2)c1` , what is its reported pIC50?
Outgoing: 5.70

Incoming: Given the compound `CCn1cc(-c2ccncn2)c(-c2cccc(NS(=O)(=O)c3cc(F)ccc3F)c2)n1` , what is its reported pIC50?
Outgoing: 5.10

Turning now to a further record.
Incoming: Given the compound `NCCNCc1ccc(-c2cc3ccncc3cc2OC2CCNCC2)s1` , what is its reported pIC50?
Outgoing: 5.40

###

So I've got a bunch of compounds here, and I need their LE values.
Biological target: WT PfPKG (Plasmodium falciparum)
Construct: recombinant full length wild type (WT) PfPKG; His6 (N); host or cells: E. coli BL21
Set-up: species or system P. falciparum
Conditions: ligand efficiency
Give bare numbers.

Please review the following examples before continuing.
Incoming: Given the compound COc1ccc(CCNC(=O)CSc2ncnc3[nH]ncc23)cc1OC [Compound 8] , what is its reported LE?
Outgoing: 0.37

Incoming: Given the compound CNCCOc1cnc(-c2ccoc2C)c(-c2ccc3cnccc3c2)c1 [Compound 13] , what is its reported LE?
Outgoing: 0.4

Incoming: Given the compound CCn1cc(-c2ccncn2)c(-c2cccc(NS(=O)(=O)c3cc(F)ccc3F)c2)n1 [Compound 2] , what is its reported LE?
Outgoing: 0.33

Please report LE for every entry that follows.
1. CC(C)(CN)c1cc(-c2ccc(Cl)c(O)c2)c(-c2ccncc2)o1 [Compound 4]
2. Nc1ccc2c(-c3ccncc3)c(-c3ccc(Cl)c(O)c3)[nH]c2n1 [Compound 15]

Outgoing:
1. 0.5
2. 0.44
